System: Trypanosoma brucei rhodesiense
assay_remarks: In Vitro measurement of inhibition of thymidine uptake in cell culture of Trypanosoma rhodesiense
Assay type: functional
recorded_conditions: read-out: ID50 (the source's name)
Sorting guide: entries reporting IC50 beneath 2 µg/mL go in the true (1) pile, the rest go in the false (0) pile.

smiles_record: Br.C[n+]1c(-c2ccc(/C=N/NC(=N)N)cc2)c([N+](=O)[O-])n2ccccc21.[Br-]
label_value: false (0)
--
smiles_record: Br.Cn1c(COc2ccc(/C=N/NC(=N)N)cc2)[n+](C)c2ccccc21.[Br-]
label_value: true (1)
--
smiles_record: C[n+]1c(-c2ccc(/C=N/NC(=N)N)cc2)cn2ccsc21.Cc1ccc(S(=O)(=O)O)cc1.Cc1ccc(S(=O)(=O)[O-])cc1
label_value: true (1)
--
smiles_record: Br.CSC(=N)N/N=C/c1ccc(OCc2cn3ccccc3[n+]2C)cc1.[Br-]
label_value: false (0)
--
smiles_record: Cc1ccc2n(c1)cc(-c1ccc(/C=N/Nc3nc(N)nc(N)n3)cc1)[n+]2C.[I-]
label_value: true (1)
--
smiles_record: COc1ccc2n(c1)cc(-c1ccc(/C=N/NC(=N)N)cc1)[n+]2C.Cc1ccc(S(=O)(=O)O)cc1.Cc1ccc(S(=O)(=O)[O-])cc1
label_value: false (0)
--
smiles_record: C[n+]1ccc(COc2ccc(/C=N/NC(=N)N3CCCC3)cc2)cc1.Cc1ccc(S(=O)(=O)O)cc1.Cc1ccc(S(=O)(=O)[O-])cc1
label_value: false (0)
--
smiles_record: C[n+]1cccc(COc2ccc(/C=N/NC(=N)NO)cc2)c1.Cc1ccc(S(=O)(=O)O)cc1.Cc1ccc(S(=O)(=O)[O-])cc1
label_value: false (0)

----------
Test system: Trypanosoma brucei rhodesiense
assay_remarks: In Vitro measurement of inhibition of thymidine uptake in cell culture of Trypanosoma rhodesiense
Assay type: functional
recorded_conditions: read-out: ID50 (the source's name)
measure_name: IC50 (µg/mL)

smiles_record: C[n+]1c(COc2ccc(/C=N/Nc3ccccn3)cc2)cn2ccccc21.Cc1ccc(S(=O)(=O)[O-])cc1
measure_name: IC50
measured_number: 7.9
//
smiles_record: Br.C[n+]1cccc(COc2ccc(/C=N/NC(=N)N3CCCC3)cc2)c1.[Br-]
measure_name: IC50
measured_number: 0.3
//
smiles_record: Br.Cc1ccn2cc(-c3ccc(/C=N/NC(=N)NO)cc3)[n+](C)c2c1.[Br-]
measure_name: IC50
measured_number: 0.9

----------
System: Trypanosoma brucei rhodesiense
assay_remarks: In Vitro measurement of inhibition of thymidine uptake in cell culture of Trypanosoma rhodesiense
Type: functional
recorded_conditions: read-out: ID50 (the source's name)

smiles_record: CC(=O)Nc1ccc(-c2cn3ccc4ccccc4c3[n+]2C)cc1.[Br-]
comparator: =
IC50 / µg/mL: 3.2
//
smiles_record: Br.C[n+]1cccc(COc2ccc(/C=N/NC3=NCCCN3)cc2)c1.[Br-]
comparator: =
IC50 / µg/mL: 3.7
//
smiles_record: Br.CSC(=N)N/N=C/c1ccc(-c2cn3ccccc3[n+]2C)cc1.[Br-]
comparator: =
IC50 / µg/mL: 3.8
//
smiles_record: C[n+]1cccc(COc2ccc(/C=N/NC(=N)N)cc2)c1.Cc1ccc(S(=O)(=O)O)cc1.Cc1ccc(S(=O)(=O)[O-])cc1
comparator: =
IC50 / µg/mL: 1.8
//
smiles_record: Br.Cn1c[n+](Cc2ccc(/C=N/NC3=NCCN3)cc2)c2ccccc21.[Br-]
comparator: =
IC50 / µg/mL: 11.1
//
smiles_record: C[n+]1c(-c2ccc(/C=N/NC(=N)NO)cc2)cn2ccsc21.Cc1ccc(S(=O)(=O)O)cc1.Cc1ccc(S(=O)(=O)[O-])cc1
comparator: =
IC50 / µg/mL: 2
//
smiles_record: Cc1ccc2n(c1)cc(-c1ccc(/C=N/Nc3cc(N)[nH]n3)cc1)[n+]2C.[Br-]
comparator: >
IC50 / µg/mL: 10
//
smiles_record: C[n+]1c(COc2ccc(/C=N/Nc3nc[nH]n3)cc2)cn2ccccc21.[Br-]
comparator: =
IC50 / µg/mL: 0.5
//
smiles_record: Br.Cc1ccn2cc(-c3ccc(/C=N/NC4=NCCCN4)cc3)[n+](C)c2c1.[Br-]
comparator: =
IC50 / µg/mL: 0.7

These data points were gathered from ChEMBL document CHEMBL1124947.
